Data provenance is patent US7763615B2.

Test system: IGROV-ET
Experiment: cells
Assay type: cell-based
Conditions: IGROV-ET, 48 hours exposure, SRB
Field: TGI. Provide a value for each of the compounds that follow.
A number alone suffices; assume Molar.

Using IGROV-ET as the test system, report measured TGI of COc1c(C)cc2c(c1O)[C@@H]1C3[C@@H]4SC[C@]5(NC(C)Cc6c5[nH]c5ccc(F)cc65)C(=O)COC[C@@H](c5c6c(c(C)c(OC(C)=O)c54)OCO6)N3[C@@H](O)[C@H](C2)N1C (some centres unmarked) [Compound 42] .
9.42E−08

Look up IGROV-ET data: TGI of COc1c(C)cc2c(c1O)[C@@H]1C3[C@@H]4SC[C@]5(NC(C)Cc6c5[nH]c5ccc(F)cc65)C(=O)COC[C@@H](c5c6c(c(C)c(OC(C)=O)c54)OCO6)N3[C@@H](O)[C@H](C2)N1C (some centres unmarked) [Compound 41] , then report it.
2.00E−08

Quote IGROV-ET TGI for entry COc1c(C)cc2c(c1O)[C@@H]1C3[C@@H]4SC[C@]5(C(=O)COC[C@@H](c6c7c(c(C)c(OC(C)=O)c64)OCO7)N3[C@@H](O)[C@H](C2)N1C)c1[nH]c2ccccc2c1CCN5C (some centres unmarked) [Compound 39] .
4.04E−06

Give measured TGI for COc1c(C)cc2c(c1O)[C@@H]1C3[C@@H]4SC[C@]5(C(=O)COC[C@@H](c6c7c(c(C)c(OC(C)=O)c64)OCO7)N3[C@@H](O)[C@H](C2)N1C)c1[nH]c2ccccc2c1CCN5C (some centres unmarked) [Compound 40] (IGROV-ET).
8.66E−09

Under IGROV-ET, report TGI for COc1c(C)cc2c(c1O)[C@@H]1C3[C@@H]4SC[C@]5(NC(C)Cc6c5[nH]c5ccc(O)cc65)C(=O)COC[C@@H](c5c6c(c(C)c(OC(C)=O)c54)OCO6)N3[C@@H](O)[C@H](C2)N1C (some centres unmarked)
6.59E−08
